Data credit: paper PMC7377239

System: iCell endothelial cells (human iPSC-derived ECs)
methodDescription: Tube formation (tubulogenesis) assay in iCell endothelial cells, 18 h
Format: cell-based
conditionSummary: Homo sapiens, Endothelial cell, iPSC-EC tube formation, 18 hr, 0.01 µM, 0.00 µM control = 100.00, read-out: endo.ttl.18hr
Where a name gives a salt, the structure may show the parent alone.
valueKind: activity at 0.01 µM
Number first, unit second: that is the form wanted.

These recorded examples may help you get a feel for the data.
>>> observedresult("Oc1cc(Cl)cc(-c2cccc(Cl)c2)c1")
"155%"
>>> observedresult("Oc1ccc(-c2cccc(Cl)c2)cc1Cl")
"164%"
>>> observedresult("O=C1C=CC(=O)C(c2ccc(Cl)cc2)=C1")
"153%"

Then there is this compound:
Fill in: activity at 0.01 µM of O=S(=O)(O)Oc1ccc(-c2ccc(Cl)cc2)cc1 [4'-yl PCB 3 sulfate] is ___
149%

====

Test system: iCell cardiomyocytes (human iPSC-derived cardiomyocytes)
methodDescription: Intracellular Ca2+ flux / beating parameters in iCell cardiomyocytes (FLIPR tetra), 90 min or 24 h
Type: cell-based
conditionSummary: Homo sapiens, Cardiomyocyte, 1.5 h, 10.00 µM; 0.00 µM = 100.00; read-out: cm.spacing.cv.90min
Structures can show the parent of a compound that is named as a salt.
valueKind: activity at 10 µM
Lab note: write values as number then unit, every time.

Consider the reported activity at 10 µM for these compounds:
>>> observedresult("Clc1ccc(-c2ccccc2)cc1")
"121%"
>>> observedresult("Oc1ccc(-c2cccc(Cl)c2)cc1Cl")
"104%"
>>> observedresult("Oc1cccc(-c2ccc(Cl)cc2)c1")
"123%"

Can you share its activity at 10 µM? I mean this compound: `Clc1cccc(-c2cccc(Cl)c2)c1`
101%

What does the data say about its activity at 10 µM? Entry: O=S(=O)(O)Oc1cc(Cl)ccc1-c1ccccc1 [2-yl PCB 3 sulfate]
90.8%

Query (compound): `COc1ccc(-c2cccc(Cl)c2)cc1Cl` ; field requested: activity at 10 µM
102%

====

Test system: HUVECs
methodDescription: High-content imaging cytotoxicity in HUVECs, 24 h
Format: cell-based, human
conditionSummary: Homo sapiens, HUVEC, 24 h, HUVECs, 24 hr; top concentration 100.00 µM; read-out: huvec.mito.24hr POD
Structures can show the parent of a compound that is named as a salt.
Labelling field: enter yes if recorded minimal effective concentration is less than 4 µM. Enter no if it equals or exceeds that cut-off.

Completed entries (count: 3):
>>> labelclass("O=S(=O)(O)Oc1cc(Cl)ccc1-c1ccccc1 [2-yl PCB 3 sulfate]")
"no"
>>> labelclass("O=S(=O)(O)Oc1cc(Cl)c(-c2cc(Cl)ccc2Cl)cc1Cl [4-yl PCB 52 sulfate]")
"yes"
>>> labelclass("Oc1cccc(-c2ccc(Cl)cc2)c1")
"yes"

Lab note: minimal effective concentration threshold 4 µM. Does this molecule come in strictly under it? `Oc1cc(Cl)c(-c2cc(Cl)ccc2Cl)cc1Cl`
yes

Does O=S(=O)(O)Oc1cc(-c2ccccc2)ccc1Cl [3-yl PCB 3 sulfate] have minimal effective concentration strictly under 4 µM?
no

I'd appreciate it if you could check whether `Oc1ccc(O)c(-c2ccc(Cl)cc2)c1` has minimal effective concentration smaller than 4 µM.
yes

====

Test system: iCell endothelial cells (human iPSC-derived ECs)
methodDescription: High-content imaging cytotoxicity in iCell endothelial cells, 24 h
Format: cell-based
conditionSummary: Homo sapiens, Endothelial cell, iPSC-EC, 24 hr, 1.00 µM, 0.00 µM control = 100.00, read-out: endo.mito.24hr
Structures can show the parent of a compound that is named as a salt.
valueKind: activity at 1 µM (%)
Please give a number only; it is taken to be in %.

Example entries and their recorded answers appear below.
>>> observedresult("O=S(=O)(O)Oc1cc(-c2ccccc2)ccc1Cl [3-yl PCB 3 sulfate]")
103
>>> observedresult("Clc1cccc(-c2cccc(Cl)c2)c1 [PCB11]")
97
>>> observedresult("Oc1ccccc1-c1ccc(Cl)cc1 [2'-OH PCB3]")
100

Now look at this entry.
Form field: reported activity at 1 µM of Clc1ccc(-c2ccccc2)cc1 [PCB3]
107
